Test system: Artemia salina
ASSAY_COMMENT: Toxicity against Artemia salina after 24 hrs
Assay type: organism-based
TEST_CONTEXT: in vivo
RESULT_TYPE: LC50

// worked examples, LC50 included
COMPOUND: CC1=CCC[C@H]2[C@](C)(CC3=CC(=O)C(S[C@H]4CC[C@@]5(C)C(=CC[C@H]6[C@@H]7CC[C@H]([C@H](C)CCCC(C)C)[C@@]7(C)CC[C@@H]65)C4)=CC3=O)[C@@H](C)CC[C@]12C
SYSTEM: Artemia salina
LC50: Not Active
//
COMPOUND: CC1=CCC[C@H]2[C@](C)(Cc3cc(O)c(SC(C)C(=O)O)cc3O)[C@@H](C)CC[C@]12C (stereo partly specified)
SYSTEM: Artemia salina
LC50: > 50 ppm
//
COMPOUND: CC1=CCC[C@H]2[C@](C)(Cc3cc(O)cc(Sc4cccc(C(=O)O)c4)c3O)[C@@H](C)CC[C@]12C
SYSTEM: Artemia salina
LC50: 14.73 ppm
//
COMPOUND: CC1=CCC[C@H]2[C@](C)(Cc3cc(O)cc(Sc4nc5ccccc5s4)c3O)[C@@H](C)CC[C@]12C
SYSTEM: Artemia salina
LC50: Not Active
//
COMPOUND: CC1=CCC[C@H]2[C@](C)(Cc3cc(O)cc(SC(C)C(=O)O)c3O)[C@@H](C)CC[C@]12C (stereo partly specified)
SYSTEM: Artemia salina
LC50: 27.25 ppm
//
COMPOUND: CC1=CCC[C@H]2[C@](C)(CC3=CC(=O)C=CC3=O)[C@@H](C)CC[C@]12C [AVARONE]
SYSTEM: Artemia salina
LC50: 0.14 ppm
//
COMPOUND: CC1=CCC[C@H]2[C@](C)(CC3=CC(O)C(S[C@H]4CC[C@@]5(C)C(=CC[C@H]6[C@@H]7CC[C@H]([C@H](C)CCCC(C)C)[C@@]7(C)CC[C@@H]65)C4)=CC3O)[C@@H](C)CC[C@]12C (stereo partly specified)
SYSTEM: Artemia salina
LC50: Not Active
//
COMPOUND: CC1=CCC[C@H]2[C@](C)(Cc3cc(O)ccc3O)[C@@H](C)CC[C@]12C [AVAROL]
SYSTEM: Artemia salina
LC50: 0.18 ppm

Exercise: Item: CC1=CCC[C@H]2[C@](C)(CC3=CC(O)C(S[C@H]4CC[C@@]5(C)C(=CC[C@H]6[C@@H]7CC[C@H]([C@H](C)CCCC(C)C)[C@@]7(C)CC[C@@H]65)C4)=C(S[C@H]4CC[C@@]5(C)C(=CC[C@H]6[C@@H]7CC[C@H]([C@H](C)CCCC(C)C)[C@@]7(C)CC[C@@H]65)C4)C3O)[C@@H](C)CC[C@]12C (stereo partly specified) Test system: Artemia salina Read-out: LC50 Value: ?
Key: Not Active

Exercise: Item: CC1=CCC[C@H]2[C@](C)(Cc3cc(O)c(Sc4nc5ccccc5s4)cc3O)[C@@H](C)CC[C@]12C Test system: Artemia salina Read-out: LC50 Value: ?
Key: Not Active

Exercise: Item: CC1=CCC[C@H]2[C@](C)(Cc3cc(O)cc(Sc4ccccc4CO)c3O)[C@@H](C)CC[C@]12C Test system: Artemia salina Read-out: LC50 Value: ?
Key: > 50 ppm

###

Test system: Saccharomyces cerevisiae
ASSAY_COMMENT: Antimicrobial activity against Saccharomyces cerevisiae DMS 70449 after 48 hrs by serial dilution method
Format: functional
Calls of active or inactive are those of the source. The calls are words filed in the database; no cut-off is given here.
RESULT_TYPE: MIC

COMPOUND: CC1=CCC[C@H]2[C@](C)(Cc3cc(O)cc(Sc4cccc(C(=O)O)c4)c3O)[C@@H](C)CC[C@]12C
MIC: inactive
--
COMPOUND: CC1=CCC[C@H]2[C@](C)(CC3=CC(O)C(S[C@H]4CC[C@@]5(C)C(=CC[C@H]6[C@@H]7CC[C@H]([C@H](C)CCCC(C)C)[C@@]7(C)CC[C@@H]65)C4)=C(S[C@H]4CC[C@@]5(C)C(=CC[C@H]6[C@@H]7CC[C@H]([C@H](C)CCCC(C)C)[C@@]7(C)CC[C@@H]65)C4)C3O)[C@@H](C)CC[C@]12C (stereo partly specified)
MIC: inactive
--
COMPOUND: CC1=CCC[C@H]2[C@](C)(CC3=CC(=O)C=CC3=O)[C@@H](C)CC[C@]12C
MIC: inactive
--
COMPOUND: CC1=CCC[C@H]2[C@](C)(Cc3cc(O)cc(SC(C)C(=O)O)c3O)[C@@H](C)CC[C@]12C (stereo partly specified)
MIC: inactive
--
COMPOUND: CC1=CCC[C@H]2[C@](C)(Cc3cc(O)c(SC(C)C(=O)O)cc3O)[C@@H](C)CC[C@]12C (stereo partly specified)
MIC: inactive

Continue with the compound presented below.
Exercise: Query (compound): CC1=CCC[C@H]2[C@](C)(Cc3cc(O)cc(Sc4ccccc4CO)c3O)[C@@H](C)CC[C@]12C ; field requested: MIC
Key: inactive

###

The following compounds each carry a recorded MIC for Acetylcholinesterase (Homo sapiens).
Give the value, in units of µg, as a plain number.

COMPOUND: CC1=CCC[C@H]2[C@](C)(Cc3cc(O)cc(SC(C)C(=O)O)c3O)[C@@H](C)CC[C@]12C (stereo not given in full)
VALUE_MEASURED: 1
//
COMPOUND: CC1=CCC[C@H]2[C@](C)(CC3=CC(=O)C=CC3=O)[C@@H](C)CC[C@]12C [AVARONE]
VALUE_MEASURED: 1
//
COMPOUND: CC1=CCC[C@H]2[C@](C)(Cc3cc(O)c(SC(C)C(=O)O)cc3O)[C@@H](C)CC[C@]12C (stereo not given in full)
VALUE_MEASURED: 1
//
COMPOUND: CC1=CCC[C@H]2[C@](C)(Cc3cc(O)cc(Sc4cccc(C(=O)O)c4)c3O)[C@@H](C)CC[C@]12C
VALUE_MEASURED: 1

Exercise: Query (compound): CC1=CCC[C@H]2[C@](C)(Cc3cc(O)cc(Sc4ccccc4CO)c3O)[C@@H](C)CC[C@]12C ; field requested: MIC
Key: 10

Exercise: Query (compound): CC1=CCC[C@H]2[C@](C)(Cc3cc(O)ccc3O)[C@@H](C)CC[C@]12C [AVAROL] ; field requested: MIC
Key: 10

Exercise: Query (compound): CC1=CCC[C@H]2[C@](C)(Cc3cc(O)cc(Sc4nc5ccccc5s4)c3O)[C@@H](C)CC[C@]12C ; field requested: MIC
Key: 10

###

System: Saccharomyces cerevisiae
ASSAY_COMMENT: Antimicrobial activity against Saccharomyces cerevisiae DMS 70449 after 48 hrs by serial dilution method
Format: functional
Active and inactive are the calls of the source. The rule behind the calls is not given here.

SMILES_STRING: CC1=CCC[C@H]2[C@](C)(CC3=CC(=O)C(S[C@H]4CC[C@@]5(C)C(=CC[C@H]6[C@@H]7CC[C@H]([C@H](C)CCCC(C)C)[C@@]7(C)CC[C@@H]65)C4)=CC3=O)[C@@H](C)CC[C@]12C
SYSTEM: Saccharomyces cerevisiae
MIC: inactive

SMILES_STRING: CC1=CCC[C@H]2[C@](C)(Cc3cc(O)c(Sc4nc5ccccc5s4)cc3O)[C@@H](C)CC[C@]12C
SYSTEM: Saccharomyces cerevisiae
MIC: inactive

SMILES_STRING: CC1=CCC[C@H]2[C@](C)(Cc3cc(O)ccc3O)[C@@H](C)CC[C@]12C
SYSTEM: Saccharomyces cerevisiae
MIC: inactive

###

The following compounds each carry a recorded MIC for Acetylcholinesterase (Homo sapiens) (UniProt P22303).

Exercise: Item: CC1=CCC[C@H]2[C@](C)(CC3=CC(O)C(S[C@H]4CC[C@@]5(C)C(=CC[C@H]6[C@@H]7CC[C@H]([C@H](C)CCCC(C)C)[C@@]7(C)CC[C@@H]65)C4)=C(S[C@H]4CC[C@@]5(C)C(=CC[C@H]6[C@@H]7CC[C@H]([C@H](C)CCCC(C)C)[C@@]7(C)CC[C@@H]65)C4)C3O)[C@@H](C)CC[C@]12C (stereo partly drawn) Test system: Acetylcholinesterase (Homo sapiens) (UniProt P22303) Read-out: MIC Value: ?
Key: > 10 µg

Exercise: Item: CC1=CCC[C@H]2[C@](C)(CC3=CC(=O)C(S[C@H]4CC[C@@]5(C)C(=CC[C@H]6[C@@H]7CC[C@H]([C@H](C)CCCC(C)C)[C@@]7(C)CC[C@@H]65)C4)=CC3=O)[C@@H](C)CC[C@]12C Test system: Acetylcholinesterase (Homo sapiens) (UniProt P22303) Read-out: MIC Value: ?
Key: > 10 µg

Exercise: Item: CC1=CCC[C@H]2[C@](C)(Cc3cc(O)c(Sc4nc5ccccc5s4)cc3O)[C@@H](C)CC[C@]12C Test system: Acetylcholinesterase (Homo sapiens) (UniProt P22303) Read-out: MIC Value: ?
Key: > 10 µg

Every entry's value here was drawn from ChEMBL document CHEMBL1154130.
